tested_target: E. coli transketolase (TK; TKhigh / TKlow forms) (Escherichia coli, UniProt P27302)
Construct: N-terminal His6 tag, expressed in E. coli XL10-gold from pQR791; homodimer; purified sample is a mix of TKhigh (oxidised) and TKlow subunits
Sequence (P27302 whole entry): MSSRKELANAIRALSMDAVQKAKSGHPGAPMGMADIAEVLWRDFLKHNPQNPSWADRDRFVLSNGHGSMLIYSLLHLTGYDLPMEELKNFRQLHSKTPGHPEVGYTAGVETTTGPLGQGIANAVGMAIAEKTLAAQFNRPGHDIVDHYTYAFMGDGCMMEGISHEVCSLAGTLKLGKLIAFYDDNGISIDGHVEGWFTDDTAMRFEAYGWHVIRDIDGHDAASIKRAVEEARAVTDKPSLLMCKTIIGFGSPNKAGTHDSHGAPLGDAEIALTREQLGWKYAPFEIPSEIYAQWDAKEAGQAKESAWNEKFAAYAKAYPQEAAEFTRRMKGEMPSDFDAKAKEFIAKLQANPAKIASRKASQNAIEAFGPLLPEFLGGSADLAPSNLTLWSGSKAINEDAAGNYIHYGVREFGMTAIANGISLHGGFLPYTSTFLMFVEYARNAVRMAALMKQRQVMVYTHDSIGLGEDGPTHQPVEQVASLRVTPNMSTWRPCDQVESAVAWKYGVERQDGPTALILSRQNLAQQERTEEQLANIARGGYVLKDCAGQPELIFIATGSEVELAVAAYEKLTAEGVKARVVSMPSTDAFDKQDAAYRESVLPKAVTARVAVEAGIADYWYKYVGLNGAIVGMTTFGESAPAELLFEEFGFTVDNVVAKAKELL
method_summary: intrinsic fluorescence quenching (ex […] nm, em […] nm), double-Hill fit
condition_parameters: read-out: Kd(high)^HPA
readout_name: Kd (mM)
Give bare numbers, in mM.

Consider O=C(O)C(=O)CO [HPA, β-hydroxypyruvate] . Its measured Kd is 3.42

* * *

tested_target: E. coli transketolase (TK; TKhigh / TKlow forms) (Escherichia coli, UniProt P27302, D469T/R520Q/S385Y)
Construct: gene tktA; N-terminal His6 tag, expressed in E. coli XL10-gold from pQR791; homodimer; purified sample is a mix of TKhigh (oxidised) and TKlow subunits
Sequence (P27302 whole entry S385Y/D469T/R520Q): as the sequence (P27302 whole entry) above, with S385Y, D469T, R520Q counted along it
method_summary: intrinsic fluorescence quenching (ex […] nm, em […] nm), double-Hill fit
Assay type: binding
condition_parameters: read-out: Kd(high)^TPP
readout_name: Kd (µM)
Answers are plain numbers, in µM.

Consider Cc1ncc(C[n+]2csc(CCO[P@](=O)(O)OP(=O)(O)O)c2C)c(N)n1 [TPP, thiamine pyrophosphate] . Its measured Kd is 6.6

* * *

tested_target: E. coli transketolase (TK; TKhigh / TKlow forms) (Escherichia coli, UniProt P27302, D469T/R520Q/S385Y)
Construct: gene tktA; N-terminal His6 tag, expressed in E. coli XL10-gold from pQR791; homodimer; purified sample is a mix of TKhigh (oxidised) and TKlow subunits
method_summary: intrinsic fluorescence quenching (ex […] nm, em […] nm), double-Hill fit
Assay type: binding
condition_parameters: read-out: Kd(high)^HPA
readout_name: Kd

Consider O=C(O)C(=O)CO [HPA, β-hydroxypyruvate] . Its measured Kd is 3.61 mM
